Substrate: C[C@H](NC(=O)CCC(=O)O)C(=O)N[C@@H](C)C(=O)N1CCC[C@H]1C(=O)N[C@@H](Cc1ccccc1)C(=O)Nc1ccc([N+](=O)[O-])cc1
Experiment: Kinetic parameters by release of p-nitroaniline from suc-AAPFpNA (absorbance at 410 nm, Michaelis-Menten fit)
Type: biochemical, Bacillus lentus
Settings: other: 0.1M glycine pH10; pH 10.0
Entries and their Km
Report only the number, with the unit mM understood.

IN: What value of Km has been recorded for this entry: Bacillus lentus subtilisin variant N74D/S99G/V102W/S126G/D191E/N198G/N212S/T254P, SEQ ID NO: 4 (Lederbergia lenta; … (protein, made in house; host or cells: protease deficient Bacillus subtilis 168) AQSVPWGISRVQAPAAHNRGLTGSGVKVAVLDTGISTHPDLNIRGGASFVPGEPSTQDGNGHGTHVAGTIAALDNSIGVLGVAPSAELYAVKVLGASGGGSWSSIAQGLEWAGNNGMHVANLSLGGPSPSATLEQAVNSATSRGVLVVAASGNSGAGSISYPARYANAMAVGATDQNNNRASFSQYGAGLEIVAPGVGVQSTYPGSTYASLSGTSMATPHVAGAAALVKQKNPSWSNVQIRNHLKNTATSLGSPNLYGSGLVNAEAATR
OUT: 0.19

IN: What value of Km has been recorded for this entry: Bacillus lentus subtilisin variant N74D/S99G/V102W/S126G/N198A/N212S/T254P, SEQ ID NO: 5 (Lederbergia lenta; N198A/N212S/N74D/S126G/S99G/T254P/V102W) (protein, made in house; host or cells: protease deficient Bacillus subtilis 168) AQSVPWGISRVQAPAAHNRGLTGSGVKVAVLDTGISTHPDLNIRGGASFVPGEPSTQDGNGHGTHVAGTIAALDNSIGVLGVAPSAELYAVKVLGASGGGSWSSIAQGLEWAGNNGMHVANLSLGGPSPSATLEQAVNSATSRGVLVVAASGNSGAGSISYPARYANAMAVGATDQNNNRASFSQYGAGLDIVAPGVAVQSTYPGSTYASLSGTSMATPHVAGAAALVKQKNPSWSNVQIRNHLKNTATSLGSPNLYGSGLVNAEAATR
OUT: 0.09

IN: What value of Km has been recorded for this entry: wild-type subtilisin of Bacillus lentus (GG36), WT, SEQ ID NO: 2 (Lederbergia lenta) (protein, made in house; host or cells: protease deficient Bacillus subtilis 168) AQSVPWGISRVQAPAAHNRGLTGSGVKVAVLDTGISTHPDLNIRGGASFVPGEPSTQDGNGHGTHVAGTIAALNNSIGVLGVAPSAELYAVKVLGASGSGSVSSIAQGLEWAGNNGMHVANLSLGSPSPSATLEQAVNSATSRGVLVVAASGNSGAGSISYPARYANAMAVGATDQNNNRASFSQYGAGLDIVAPGVNVQSTYPGSTYASLNGTSMATPHVAGAAALVKQKNPSWSNVQIRNHLKNTATSLGSTNLYGSGLVNAEAATR
OUT: 1.34

IN: What value of Km has been recorded for this entry: Bacillus lentus subtilisin variant N74D/S101A/V102W (control variant of WO1995010591), SEQ ID NO: 3 (Lederbergia lenta; N74D/S101A/V102W) (protein, made in house; host or cells: protease deficient Bacillus subtilis 168) AQSVPWGISRVQAPAAHNRGLTGSGVKVAVLDTGISTHPDLNIRGGASFVPGEPSTQDGNGHGTHVAGTIAALDNSIGVLGVAPSAELYAVKVLGASGSGAWSSIAQGLEWAGNNGMHVANLSLGSPSPSATLEQAVNSATSRGVLVVAASGNSGAGSISYPARYANAMAVGATDQNNNRASFSQYGAGLDIVAPGVNVQSTYPGSTYASLNGTSMATPHVAGAAALVKQKNPSWSNVQIRNHLKNTATSLGSTNLYGSGLVNAEAATR
OUT: 0.33
